Test system: Saccharomyces cerevisiae;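 note: PSI is a weighted mean of sequencing reads over stability bins, variants kept only with over 10 reads, mCherry proximal and sfGFP distal, peptide attached via GGGS linker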
Assay: protein stability index of tFT-peptide fusion (C-terminal peptide) (PSI (0-1 scale)); higher = more stable (slower turnover)
Details: genetic background: cdc34-1; temperature: 37 C
Label Criterion not met if protein stability index falls below 0.5; label Criterion met in every other case.

Reference set (3 entries):
residue.codes: IFVFVSFPSCVL
class: Criterion met
//
residue.codes: ILVFHFWPFLVR
class: Criterion not met
//
residue.codes: WCVRRVRFVMGC
class: Criterion not met

Q. Determine whether this sequence has protein stability index no lower than 0.5: SYALGNVVGGSL
A. Criterion met

Q. # repeat for TLRINSPFYFLS
A. Criterion met

Q. # repeat for PVLPPPLLLCPC
A. Criterion not met
